target: human NaV 1.1 (Homo sapiens, UniProt P35498); construct: expressed in transfected cells; host or cells: CHO; assay: Electrophysiology, IonWorks Barracuda, NaV channel block in CHO cells; type: cell-based; conditions: Nav1.1, CHO cells, 5 min exposure, ambient temperature; read-out: IC50 TP1 (tonic)
measured attribute: IC50 (µM)

[[record]]
molecule = "CCN(CC)CC(=O)Nc1c(C)cccc1C [Lidocaine, reference compound]"
system_under_test = "human NaV 1.1 (Homo sapiens, UniProt P35498)"
units_of_measure = "µM"
number = 543


###

Molecular target: human NaV 1.2 (Homo sapiens)
Construct: expressed in transfected cells; host or cells: CHO
Sequence (Q99250 whole entry): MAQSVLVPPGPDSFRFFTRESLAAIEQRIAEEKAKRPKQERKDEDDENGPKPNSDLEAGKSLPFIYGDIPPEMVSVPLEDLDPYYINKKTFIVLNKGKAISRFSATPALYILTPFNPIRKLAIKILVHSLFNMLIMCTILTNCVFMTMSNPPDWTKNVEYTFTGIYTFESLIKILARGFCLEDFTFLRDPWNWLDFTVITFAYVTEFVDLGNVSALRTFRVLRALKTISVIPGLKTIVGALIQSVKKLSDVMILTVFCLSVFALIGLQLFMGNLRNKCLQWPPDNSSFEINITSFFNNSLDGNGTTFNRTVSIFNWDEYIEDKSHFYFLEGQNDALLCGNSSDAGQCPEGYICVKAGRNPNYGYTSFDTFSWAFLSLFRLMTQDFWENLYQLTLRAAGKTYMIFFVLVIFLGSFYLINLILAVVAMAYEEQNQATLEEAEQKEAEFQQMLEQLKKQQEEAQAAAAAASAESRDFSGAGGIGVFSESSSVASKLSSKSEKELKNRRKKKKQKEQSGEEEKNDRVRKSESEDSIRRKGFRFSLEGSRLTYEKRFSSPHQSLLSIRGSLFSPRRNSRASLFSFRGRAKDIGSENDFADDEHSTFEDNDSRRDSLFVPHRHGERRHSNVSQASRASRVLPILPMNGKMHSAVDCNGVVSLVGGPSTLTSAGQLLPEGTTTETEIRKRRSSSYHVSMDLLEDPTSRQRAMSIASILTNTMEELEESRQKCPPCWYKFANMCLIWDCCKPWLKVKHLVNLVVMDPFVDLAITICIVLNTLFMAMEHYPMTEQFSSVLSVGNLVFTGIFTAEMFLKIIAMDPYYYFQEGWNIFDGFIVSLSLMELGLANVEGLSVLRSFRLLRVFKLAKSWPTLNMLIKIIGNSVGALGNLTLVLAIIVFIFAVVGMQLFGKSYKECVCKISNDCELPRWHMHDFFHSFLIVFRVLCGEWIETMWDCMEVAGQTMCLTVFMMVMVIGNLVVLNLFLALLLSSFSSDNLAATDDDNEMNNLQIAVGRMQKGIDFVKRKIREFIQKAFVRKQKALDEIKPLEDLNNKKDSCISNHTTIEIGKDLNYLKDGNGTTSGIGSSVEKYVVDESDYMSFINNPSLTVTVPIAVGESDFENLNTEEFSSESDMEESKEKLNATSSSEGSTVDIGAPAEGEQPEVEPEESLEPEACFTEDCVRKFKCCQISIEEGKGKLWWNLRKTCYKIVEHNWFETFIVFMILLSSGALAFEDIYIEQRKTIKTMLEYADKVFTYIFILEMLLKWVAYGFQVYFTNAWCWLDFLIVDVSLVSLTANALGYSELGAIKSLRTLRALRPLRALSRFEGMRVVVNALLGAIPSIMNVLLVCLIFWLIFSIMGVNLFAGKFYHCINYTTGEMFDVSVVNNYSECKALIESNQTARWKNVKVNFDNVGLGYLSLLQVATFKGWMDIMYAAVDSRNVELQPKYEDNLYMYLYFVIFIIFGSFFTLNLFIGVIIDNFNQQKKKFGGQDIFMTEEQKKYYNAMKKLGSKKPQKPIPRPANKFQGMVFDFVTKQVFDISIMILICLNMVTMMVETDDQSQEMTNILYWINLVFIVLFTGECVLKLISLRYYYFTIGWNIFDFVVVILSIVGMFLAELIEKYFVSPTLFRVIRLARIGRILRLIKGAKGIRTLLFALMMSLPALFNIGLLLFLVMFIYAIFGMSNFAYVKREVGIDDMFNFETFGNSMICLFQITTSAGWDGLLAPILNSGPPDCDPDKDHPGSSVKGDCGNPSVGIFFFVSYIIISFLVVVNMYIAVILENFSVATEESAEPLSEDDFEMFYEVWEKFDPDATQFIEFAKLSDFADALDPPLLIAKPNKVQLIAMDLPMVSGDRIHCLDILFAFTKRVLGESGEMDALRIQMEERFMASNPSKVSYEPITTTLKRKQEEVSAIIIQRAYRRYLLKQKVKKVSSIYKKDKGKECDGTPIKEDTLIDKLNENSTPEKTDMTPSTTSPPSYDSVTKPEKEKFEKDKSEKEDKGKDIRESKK
Experiment: Electrophysiology, IonWorks Barracuda, NaV channel block in CHO cells
Assay type: cell-based
Details: IC50 TP1 (tonic), Nav1.2, CHO cells, 5 min exposure, ambient temperature
Procedure: Effects on Human NaV 1.1, NaV 1.2, NaV1.3, NaV 1.4, NaV 1.5, NaV 1.6, NaV 1.7 and NaV 1.8/β3 Sodium Channels Expressed in Mammalian Cells CHO cells were stably transfected with human ion channel cDNAs. Stable transfectants were selected by expression with the antibiotic-resistance gene(s) incorporated into the expression plasmid(s). Selection pressure was maintained by including selection antibiotics in the culture medium. […] Inhibition of NaV channels was measured using a stimulus voltage pattern. […]
Where a name gives a salt, the structure may show the parent alone.
measured attribute: IC50

[[record]]
compound = "COC(=O)[C@@H](c1ccc(-c2ccccc2)cc1)[C@H]1C=CCCN1 [EXAMPLE 1D, hydrochloride]"
result = "> 30 µM"

[[record]]
compound = "COC(=O)[C@H](c1ccc(-c2ccccc2)cc1)[C@@H]1C=CCCN1.Cl [EXAMPLE 1C, hydrochloride]"
result = "> 30 µM"

[[record]]
compound = "COC(=O)[C@H](c1ccc(-c2ccccc2)cc1)[C@@H]1C=CCCN1 (racemic)"
result = "> 30 µM"

